This collection of values is drawn from patent US20240287097A1.

Tested on: HTT mRNA, canonical junction (CJ)
Assay: Splicing RT-qPCR assay, HTT canonical junction (CJ) mRNA decrease
Format: cell-based
Settings: A673 or K562 cells, 24 hours compound treatment, 50% response in CJ decrease
Answer each item with its documented AC50.

Consider the reported AC50 for these molecules:
CN1CCC(c2nc3c(=O)n(-c4ccc5nn(C)cc5c4)cnc3s2)CC1 [Compound 176] ... > 10 µM
Cc1cn2cc(-n3cnc4sc(N5CCNCC5)nc4c3=O)cc(C(F)(F)F)c2n1 [Compound 223] ... > 10 µM
Cc1cn2cc(-c3nc4c(=O)n(C5CCN(C)CC5)cnc4s3)cc(F)c2n1 [Compound 186] ... 1 to 10 µM
Cc1cn2cc(-n3cnc4sc(N5CCN(C)CC5)nc4c3=O)cc(F)c2n1 [Compound 221] ... > 10 µM
CN1CC=C(c2nc3c(=O)n(-c4ccc5nn(C)cc5c4)cnc3s2)CC1 [Compound 188] ... > 10 µM

Respectfully, I request AC50 for each entry included below.
1. Cc1cn2cc(-n3cnc4sc(N5CCN(C)CC5)nc4c3=O)cc(C(F)(F)F)c2n1 [Compound 224]
2. Cc1cn2cc(-n3cnc4sc(N5CCNCC5)nc4c3=O)cc(F)c2n1 [Compound 220]
3. Cc1cc(-c2nc3c(=O)n(C4CC(C)(C)N(C=O)C(C)(C)C4)cnc3s2)cc2cn(C)nc12 [Compound 187]
4. Cc1cc(-c2nc3c(=O)n(C4CCN(C)CC4)cnc3s2)cc2cn(C)nc12 [Compound 179]

Resp:
> 10 µM
> 10 µM
1 to 10 µM
> 10 µM

Req: Which value of AC50 has been reported for CN1CCN(c2nc3c(=O)n(-c4ccc5nn(C)cc5c4)cnc3s2)CC1 [Compound 181] in the records?
Resp: > 10 µM
